Catalogue of 3' UTR reporter interaction score values
Tested on: RB1
experiment-summary: 3' UTR reporter interaction score (median-centred robust z-score of log2 firefly/Renilla activity); higher = less repression of the 3' UTR reporter
test-settings: HEK293T; 48 h
Write the value as a bare number.

Please review the entries below; each comes with its answer.
- biopolymer-sequence: "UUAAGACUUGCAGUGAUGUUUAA"
  3' UTR reporter interaction score: -2.53
- biopolymer-sequence: "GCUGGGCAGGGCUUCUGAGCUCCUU"
  3' UTR reporter interaction score: 0.659
- biopolymer-sequence: "UGAGGUAGUAGUUUGUACAGU"
  3' UTR reporter interaction score: 0.426

Form: sequence = `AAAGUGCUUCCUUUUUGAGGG` ; 3' UTR reporter interaction score = 1.02

Looking up `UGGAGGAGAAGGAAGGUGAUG` , I found its 3' UTR reporter interaction score recorded as 1.82

# sequence `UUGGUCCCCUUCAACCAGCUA` ; its 3' UTR reporter interaction score = -0.167

Measured 3' UTR reporter interaction score, `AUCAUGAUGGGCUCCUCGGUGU` : 0.226

====

Tested on: MYC
experiment-summary: 3' UTR reporter interaction score (median-centred robust z-score of log2 firefly/Renilla activity); higher = less repression of the 3' UTR reporter
test-settings: HEK293T; 48 h
Below is a list of entries, each paired with its recorded 3' UTR reporter interaction score value.
Answer using only a numeral; do not append any unit.

Sample answers from the record:
- biopolymer-sequence: "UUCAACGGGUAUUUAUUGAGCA"
  3' UTR reporter interaction score: -0.455
- biopolymer-sequence: "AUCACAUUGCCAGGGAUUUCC"
  3' UTR reporter interaction score: -0.00223
- biopolymer-sequence: "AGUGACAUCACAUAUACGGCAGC"
  3' UTR reporter interaction score: -0.366
- biopolymer-sequence: "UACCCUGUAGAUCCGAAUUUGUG"
  3' UTR reporter interaction score: 0.449

Looking up `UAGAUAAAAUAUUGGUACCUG` , I found its 3' UTR reporter interaction score recorded as 0.271

Note to self: 3' UTR reporter interaction score recorded for `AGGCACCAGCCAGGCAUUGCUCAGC` was -0.313

# 3' UTR reporter interaction score (sequence: `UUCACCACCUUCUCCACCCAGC` ) is 0.119

`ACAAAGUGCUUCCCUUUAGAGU` yielded 3' UTR reporter interaction score of -0.239

Reported 3' UTR reporter interaction score ( `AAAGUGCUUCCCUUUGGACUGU` ) = -0.227

The sequence `UGAGAUGAAGCACUGUAGCUCA` showed 3' UTR reporter interaction score equal to 0.59

// 3' UTR reporter interaction score lookup, sequence = `UUUUUGCGAUGUGUUCCUAAUA` , result: 0.66

Entry `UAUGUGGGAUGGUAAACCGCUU` , 3' UTR reporter interaction score reported as 0.022

Record `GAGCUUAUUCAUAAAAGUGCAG` , field 3' UTR reporter interaction score: 1.07

The sequence listed as `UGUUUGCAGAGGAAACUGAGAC` has a reported 3' UTR reporter interaction score of 0.778

Measured 3' UTR reporter interaction score of `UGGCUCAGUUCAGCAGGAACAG` : -2.14

Short answer for `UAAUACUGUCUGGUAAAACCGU` : 3' UTR reporter interaction score was 0.8

Value of measured 3' UTR reporter interaction score for the entry `AUCAGCAAACAUUUAUUGUGUG` : -0.19

====

Documented 3' UTR reporter interaction score across a set of sequences
Test system: FBXW7
experiment-summary: 3' UTR reporter interaction score (median-centred robust z-score of log2 firefly/Renilla activity); higher = less repression of the 3' UTR reporter
test-settings: HEK293T; 48 h
Please give only the number in your answer, with no unit.

In plain terms, `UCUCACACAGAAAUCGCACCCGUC` has a documented 3' UTR reporter interaction score of -0.236

For this sequence ( `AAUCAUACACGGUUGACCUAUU` ), measured 3' UTR reporter interaction score is 0.544

Lookup result for `CACGCUCAUGCACACACCCAC` ; measured 3' UTR reporter interaction score: -1.61

Consider `GGUCCAGAGGGGAGAUAGG` . Its measured 3' UTR reporter interaction score is -0.103

// sample `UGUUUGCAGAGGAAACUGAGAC` , its 3' UTR reporter interaction score was -1.52

Record `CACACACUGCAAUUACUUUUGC` . Reported 3' UTR reporter interaction score: -1.17

Value of 3' UTR reporter interaction score reported for the sequence `AGCUGGUGUUGUGAAUC` is -0.398

3' UTR reporter interaction score for `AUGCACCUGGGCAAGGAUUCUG` is -4.97

The sequence listed as `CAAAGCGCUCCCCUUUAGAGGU` shows 3' UTR reporter interaction score equal to -0.27

====

Readings of 3' UTR reporter interaction score for the listed sequences
Tested on: TP53
experiment-summary: 3' UTR reporter interaction score (median-centred robust z-score of log2 firefly/Renilla activity); higher = less repression of the 3' UTR reporter
test-settings: HEK293T; 48 h

- biopolymer-sequence: "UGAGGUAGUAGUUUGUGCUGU"
  tested-target: "TP53"
  3' UTR reporter interaction score: 0.534

3' UTR reporter interaction score for `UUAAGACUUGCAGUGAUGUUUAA` is 1.42

Kindly note the recorded 3' UTR reporter interaction score for `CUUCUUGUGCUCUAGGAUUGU` , which is -0.0486

// field: 3' UTR reporter interaction score; key: `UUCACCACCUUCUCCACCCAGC` ; value = -0.656

Lookup result for `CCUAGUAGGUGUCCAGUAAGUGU` ; measured 3' UTR reporter interaction score: -0.172

====

// reported 3' UTR reporter interaction score per item
Tested on: HRAS
experiment-summary: 3' UTR reporter interaction score (median-centred robust z-score of log2 firefly/Renilla activity); higher = less repression of the 3' UTR reporter
test-settings: HEK293T; 48 h
Output: the number by itself.

- biopolymer-sequence: "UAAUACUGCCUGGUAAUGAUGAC"
  endpoint-result: -0.0979
- biopolymer-sequence: "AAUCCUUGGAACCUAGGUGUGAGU"
  endpoint-result: 0.739

Documented 3' UTR reporter interaction score of `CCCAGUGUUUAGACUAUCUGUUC` : -0.315

====

Tested on: NOTCH1
experiment-summary: 3' UTR reporter interaction score (median-centred robust z-score of log2 firefly/Renilla activity); higher = less repression of the 3' UTR reporter
test-settings: HEK293T; 48 h
property-measured: 3' UTR reporter interaction score
Give the value as a plain number.

Reference set (2 entries):
- biopolymer-sequence: "UGGCAGUGUCUUAGCUGGUUGUU"
  3' UTR reporter interaction score: -3.59
- biopolymer-sequence: "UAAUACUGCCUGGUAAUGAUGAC"
  3' UTR reporter interaction score: -0.616

Lab note: `AAAAUGGUUCCCUUUAGAGUGUU` gave 3' UTR reporter interaction score of -2.3

Memo: `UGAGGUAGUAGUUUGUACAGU` , reported 3' UTR reporter interaction score: 0.637

GET /value?item= `ACAGCAGGCACAGACAGGCAG` &field=3' UTR reporter interaction score returns 0.191

Item: `UACCCAUUGCAUAUCGGAGUUG` | 3' UTR reporter interaction score: 0.783

Entry `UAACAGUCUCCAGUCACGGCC` — recorded 3' UTR reporter interaction score = -0.389

In plain terms, `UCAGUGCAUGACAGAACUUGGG` has a documented 3' UTR reporter interaction score of 0.274

====

Test system: FBXW7
experiment-summary: 3' UTR reporter interaction score (median-centred robust z-score of log2 firefly/Renilla activity); higher = less repression of the 3' UTR reporter
test-settings: HEK293T; 48 h
property-measured: 3' UTR reporter interaction score
# print the numeric value only

Recorded 3' UTR reporter interaction score, per entry:
- biopolymer-sequence: "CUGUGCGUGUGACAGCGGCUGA"
  endpoint-result: 0.121
- biopolymer-sequence: "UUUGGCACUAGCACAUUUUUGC"
  endpoint-result: -1.69

The recorded 3' UTR reporter interaction score for entry `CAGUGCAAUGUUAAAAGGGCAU` equals 0.774

Item: `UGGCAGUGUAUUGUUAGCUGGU` | 3' UTR reporter interaction score: 0.551

3' UTR reporter interaction score in this record for `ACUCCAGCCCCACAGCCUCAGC` : -1.03

// 3' UTR reporter interaction score value for `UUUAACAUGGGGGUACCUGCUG` : 0.198

The sequence listed as `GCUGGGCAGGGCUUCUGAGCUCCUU` shows 3' UTR reporter interaction score equal to -0.37

The sequence listed as `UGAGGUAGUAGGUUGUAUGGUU` shows 3' UTR reporter interaction score equal to 0.348

Note to self: 3' UTR reporter interaction score recorded for `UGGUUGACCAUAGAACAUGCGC` was -0.743

3' UTR reporter interaction score reading for `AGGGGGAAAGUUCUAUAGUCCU` : 0.691

Kindly note the recorded 3' UTR reporter interaction score for `UCCGUCUCAGUUACUUUAUAGCC` , which is -1.56

So, `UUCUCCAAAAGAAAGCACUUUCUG` ? Its 3' UTR reporter interaction score was -0.49

For `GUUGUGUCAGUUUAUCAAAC` the sequence record lists 3' UTR reporter interaction score as -0.0228

Value of measured 3' UTR reporter interaction score for the entry `UCGGGGAUCAUCAUGUCACGAG` : 0.568

Please fill in: 3' UTR reporter interaction score reported for `AUCGUGCAUCCCUUUAGAGUGUU` = 0.0524

// 3' UTR reporter interaction score lookup, sequence = `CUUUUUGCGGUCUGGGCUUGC` , result: -2.11

Note to self: 3' UTR reporter interaction score recorded for `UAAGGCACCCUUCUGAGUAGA` was 0.601

Lookup result for `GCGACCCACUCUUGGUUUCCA` ; measured 3' UTR reporter interaction score: 0.92

Entry `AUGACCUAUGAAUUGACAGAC` — recorded 3' UTR reporter interaction score = -0.658

So for `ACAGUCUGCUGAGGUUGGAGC` , the logged 3' UTR reporter interaction score turned out to be -0.12

Noted for `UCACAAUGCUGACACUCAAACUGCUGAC` : its 3' UTR reporter interaction score reads 0.257

So for `AGAGGUAGUAGGUUGCAUAGU` , the logged 3' UTR reporter interaction score turned out to be -0.0422

# 3' UTR reporter interaction score of `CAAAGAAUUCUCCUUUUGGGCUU` = -0.499

Just so you know, measured 3' UTR reporter interaction score for `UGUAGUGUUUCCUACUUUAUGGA` came out at -0.472

The reported value for `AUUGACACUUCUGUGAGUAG` in terms of 3' UTR reporter interaction score is -1.37

# 3' UTR reporter interaction score of `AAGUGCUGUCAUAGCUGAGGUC` = 0.564

Record `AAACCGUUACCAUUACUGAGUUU` , field 3' UTR reporter interaction score: -0.543
